The measurements presented in this section are drawn from patent US20110281810A1.

assay: physchem; conditions: aqueous with cosolvent or surfactant or cyclodextrin, Solubility with TEGO SMO 80V
PARAMETER MEASURED: solubility (µg/mL)

[a] CC[C@H]1OC(=O)[C@H](C)[C@@H](O[C@H]2C[C@@](C)(OC)[C@@H](O)[C@H](C)O2)[C@H](C)[C@@H](O[C@@H]2O[C@H](C)C[C@H](N(C)C)[C@H]2O)[C@](C)(O)C[C@@H](C)C(=O)[C@H](C)[C@@H](O)[C@]1(C)O [Erythromycin]
[b] CCC(C)n1ncn(-c2ccc(N3CCN(c4ccc(OCC5COC(Cn6cncn6)(c6ccc(Cl)cc6Cl)O5)cc4)CC3)cc2)c1=O (centres unmarked) [Itraconazole]
Dear colleague, could you let me know whether a or b has the lower recorded solubility? Thanks. Please respond with the label that marks your chosen entry.
b
(b: 15 µg/mL, a: 1700 µg/mL)

====

assay: physchem; settings: aqueous with cosolvent or surfactant or cyclodextrin, Solubility (MW) with Eumulgin L
PARAMETER MEASURED: solubility (µg/mL)

[I] CCOC(=O)C=Cc1ccccc1 [Ethyl cinnamate, ethyl cinnamate]
[II] O=C(C=Cc1ccccc1)OCCc1ccccc1 [Phenethyl cinnamate, phenethyl cinnamate]
solubility comparison. Which is larger, I or II ? # respond with the chosen item's label
I
(I: 14700 µg/mL, II: 2500 µg/mL)

====

assay: physchem; details: aqueous with cosolvent or surfactant or cyclodextrin, Solubility with Speziol TPGS
PARAMETER MEASURED: solubility (µg/mL)
# output: bare number, implied unit µg/mL

Give me measured solubility, please, for this molecule: CC[C@H]1OC(=O)[C@H](C)[C@@H](O[C@H]2C[C@@](C)(OC)[C@@H](O)[C@H](C)O2)[C@H](C)[C@@H](O[C@@H]2O[C@H](C)C[C@H](N(C)C)[C@H]2O)[C@](C)(O)C[C@@H](C)C(=O)[C@H](C)[C@@H](O)[C@]1(C)O [Erythromycin]
1720

====

assay: Solubilization of a homologous series of cinnamic acid derivatives in water by solubilizers; conditions: Eumulgin HPS solution in water, aqueous with cosolvent or surfactant or cyclodextrin, Solubility (MW) with Eumulgin HPS, water, solubilizer Eumulgin HPS
PARAMETER MEASURED: solubility (mg/mL)

> print(dat)
                                   compound  endpoint.value
1  CC(C)COC(=O)C=Cc1ccccc1 [Isobutyl cinnamate, isobutyl cinnamate]              29

[A] COC(=O)C=Cc1ccccc1 [Methyl cinnamate, methyl cinnamate]
[B] CC(C)OC(=O)C=Cc1ccccc1 [Isopropyl cinnamate, isopropyl cinnamate]
Just tell me: smaller solubility value, A or B ? Your answer should be the label of the entry you select.
A
(A: 11.4 mg/mL, B: 25.7 mg/mL)

====

assay: Solubilization of a homologous series of cinnamic acid derivatives in water by solubilizers; conditions: Eumulgin O10 solution in water, aqueous with cosolvent or surfactant or cyclodextrin, Solubility (MW) with Eumulgin O10, water, solubilizer Eumulgin O10
PARAMETER MEASURED: solubility (mg/mL)

[I] CC(C)COC(=O)C=Cc1ccccc1 [Isobutyl cinnamate, isobutyl cinnamate]
[II] CC(C)OC(=O)C=Cc1ccccc1 [Isopropyl cinnamate, isopropyl cinnamate]
[III] COC(=O)C=Cc1ccccc1 [Methyl cinnamate, methyl cinnamate]
Sort the listed molecules above so the one with the largest solubility comes first and the smallest comes last. Provide the ranking by listing each label in its place in the requested order.
I, II, III
(I: 65.9 mg/mL, II: 32.6 mg/mL, III: 9.1 mg/mL)
